# assay_system: HDAC1 (Homo sapiens, UniProt Q13547)
# Sequence (Q13547 whole entry): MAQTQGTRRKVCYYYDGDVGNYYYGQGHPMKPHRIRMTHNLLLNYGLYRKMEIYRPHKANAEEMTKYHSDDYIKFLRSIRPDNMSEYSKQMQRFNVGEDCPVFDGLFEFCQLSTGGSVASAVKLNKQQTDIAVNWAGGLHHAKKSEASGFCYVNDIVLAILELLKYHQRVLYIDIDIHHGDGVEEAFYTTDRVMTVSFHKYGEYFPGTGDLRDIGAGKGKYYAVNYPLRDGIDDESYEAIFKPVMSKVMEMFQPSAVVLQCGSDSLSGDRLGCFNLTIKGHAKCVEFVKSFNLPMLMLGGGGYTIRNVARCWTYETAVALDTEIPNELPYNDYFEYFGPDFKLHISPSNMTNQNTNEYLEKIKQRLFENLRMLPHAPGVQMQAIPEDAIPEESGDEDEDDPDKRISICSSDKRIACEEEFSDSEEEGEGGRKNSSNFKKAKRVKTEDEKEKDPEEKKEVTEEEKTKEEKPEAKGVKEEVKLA
# test_description: In vitro HDAC inhibition preincubation assay (ZMAL substrate)
Provide the reported IC50 of each item.
Please give a number only; it is taken to be in nM.

Consider the molecule shown here: CC(=O)Nc1ccc(C(=O)Nc2cc(-c3cccnc3)ccc2N)cc1 [6 e] What is its recorded IC50?
76.7

Can you handle CC(=O)Nc1ccc(C(=O)Nc2cc(-c3cccnc3F)ccc2N)cc1 [6 h] next?
153

Can you handle CC(=O)Nc1ccc(C(=O)Nc2cc(-c3ccc(F)nc3)ccc2N)cc1 [6 g] next?
93.5

Can you handle CC(=O)Nc1ccc(C(=O)Nc2cc(-c3ccncc3)ccc2N)cc1 [6 d] next?
13.2

Can you handle CN(C)c1ccc(C(=O)N(CC(=O)NC2CCCCC2)Cc2ccc(C(=O)Nc3cc(-c4ccncc4)ccc3N)cc2)cc1 [10 b] next?
41.1

Can you handle CN(C)c1ccc(C(=O)N(CC(=O)NCc2ccccc2)Cc2ccc(C(=O)Nc3cc(-c4ccncc4)ccc3N)cc2)cc1 [10 a] next?
41.8

* * *

# assay_system: HDAC1 (Homo sapiens)
# test_description: IC50-shift experiments (varied preincubation time)
# Type: biochemical
# condition_set: HDAC1 IC50, preincubation 120 min, preincubation time 120 min at 20°C; triplicates
measured_attribute: pIC50
Hey, just a heads up that pIC50 is the negative log base 10 of the concentration in molar.

Consider the compound shown here: CN(C)c1ccc(C(=O)N(CC(=O)NCc2ccccc2)Cc2ccc(C(=O)Nc3ccccc3N)cc2)cc1 [VK‐1, reference compound] What is its recorded pIC50?
7.45

Can you handle "CC(=O)Nc1ccc(C(=O)Nc2cc(-c3ccncc3)ccc2N)cc1" next?
7.60

* * *

# test_description: LogD7.4 by OECD slow-stirring method with HPLC quantification
# condition_set: 1-octanol/PBS buffer (mutually saturated), pH 7.4, LogD(7.4) (III), single slow-stirring experiment III
measured_attribute: logD at 48 h
Give your answer as a number; write no unit.

Consider the compound shown here: O=C(CCCCCCC(=O)Nc1ccccc1)NO [vorinostat, reference compound] What is its recorded logD at 48 h?
0.999

* * *

# assay_system: HDAC2 (Homo sapiens, UniProt Q92769)
# Sequence (Q92769 whole entry): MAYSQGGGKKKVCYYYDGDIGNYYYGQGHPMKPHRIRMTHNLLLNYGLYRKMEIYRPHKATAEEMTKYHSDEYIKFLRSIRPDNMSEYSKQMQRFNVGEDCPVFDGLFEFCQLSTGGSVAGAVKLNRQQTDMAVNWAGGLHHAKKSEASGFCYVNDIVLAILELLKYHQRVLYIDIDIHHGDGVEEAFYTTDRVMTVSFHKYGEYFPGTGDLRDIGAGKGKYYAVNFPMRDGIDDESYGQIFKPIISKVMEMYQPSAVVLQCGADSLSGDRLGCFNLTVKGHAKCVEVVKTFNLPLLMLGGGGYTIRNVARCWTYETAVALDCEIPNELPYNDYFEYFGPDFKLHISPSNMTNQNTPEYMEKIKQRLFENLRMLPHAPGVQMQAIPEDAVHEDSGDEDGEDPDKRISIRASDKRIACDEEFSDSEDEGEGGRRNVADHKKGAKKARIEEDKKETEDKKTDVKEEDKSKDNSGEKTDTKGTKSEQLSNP
# test_description: In vitro HDAC inhibition preincubation assay (ZMAL substrate)
pIC50: −log10 of the molar value.
Label t when pIC50 is at or above 7; otherwise label f.

Identify whether the reported pIC50 of the following compound is 7 or greater: CC(=O)Nc1ccc(C(=O)Nc2cc(-c3ccnc(F)c3)ccc2N)cc1 [6 i]
f

Can you handle CC(=O)Nc1ccc(C(=O)Nc2cc(-c3ccccc3)ccc2N)cc1 [6 a] next?
t

* * *

# test_description: Solubility in PBS buffer by OECD flask method with HPLC quantification
# Assay type: physicochemical
# condition_set: 25 °C, pH 7.4, aqueous buffer, thermodynamic from solid, pH=7.4, flask method, 25 °C, 72 h, mean ±SD, read-out: Solubility
measured_attribute: solubility at 72 h (µg/mL)
Please give a number only; it is taken to be in µg/mL.

Consider the molecule shown here: "CC(=O)Nc1ccc(C(=O)Nc2cc(-c3ccc(F)cc3)ccc2N)cc1" What is its recorded solubility at 72 h?
0.45

Can you handle "CC(=O)Nc1ccc(C(=O)Nc2cc(-c3ccc(F)nc3)ccc2N)cc1" next?
7.66

Can you handle "CC(=O)Nc1ccc(C(=O)Nc2cc(-c3cccnc3F)ccc2N)cc1" next?
1.58

Can you handle "CC(=O)Nc1ccc(C(=O)Nc2cc(-c3ccccc3)ccc2N)cc1" next?
1.49

Can you handle "CN(C)c1ccc(C(=O)N(CC(=O)NC2CCCCC2)Cc2ccc(C(=O)Nc3cc(-c4ccncc4)ccc3N)cc2)cc1" next?
1.99

Can you handle "CC(=O)Nc1ccc(C(=O)Nc2cc(-c3ccnc(F)c3)ccc2N)cc1" next?
3.72

Can you handle "CN(C)c1ccc(C(=O)N(CC(=O)NC(C)(C)C)Cc2ccc(C(=O)Nc3cc(-c4ccncc4)ccc3N)cc2)cc1" next?
7.48

Can you handle "CC(=O)Nc1ccc(C(=O)Nc2cc(-c3cccs3)ccc2N)cc1" next?
0.74

Can you handle "CC(=O)Nc1ccc(C(=O)Nc2cc(-c3ccncc3)ccc2N)cc1" next?
16.5

* * *

# assay_system: HDAC2 (Homo sapiens, UniProt Q92769)
# test_description: IC50-shift experiments (varied preincubation time)
# Format: biochemical
# Set-up: purchased BPS Bioscience 50052
# condition_set: HDAC2 IC50, preincubation 60 min, preincubation time 60 min at 20°C; triplicates
measured_attribute: pIC50
Hey, just a heads up that pIC50 is the negative log base 10 of the concentration in molar.

Consider the compound shown here: CC(=O)Nc1ccc(C(=O)Nc2cc(-c3ccncc3)ccc2N)cc1 [6 d] What is its recorded pIC50?
7.11

Can you handle CN(C)c1ccc(C(=O)N(CC(=O)NC(C)(C)C)Cc2ccc(C(=O)Nc3cc(-c4ccncc4)ccc3N)cc2)cc1 [10 c] next?
7.08

* * *

# assay_system: HDAC1 (Homo sapiens)
# test_description: IC50-shift experiments (varied preincubation time)
# Assay type: biochemical
# condition_set: HDAC1 IC50, preincubation 5 min, preincubation time 5 min at 20°C; triplicates
measured_attribute: pIC50
Hey, just a heads up that pIC50 is the negative log base 10 of the concentration in molar.

Consider the compound shown here: CN(C)c1ccc(C(=O)N(CC(=O)NCc2ccccc2)Cc2ccc(C(=O)Nc3ccccc3N)cc2)cc1 [VK‐1, reference compound] What is its recorded pIC50?
7.03

Can you handle CC(=O)Nc1ccc(C(=O)Nc2cc(-c3ccncc3)ccc2N)cc1 [6 d] next?
7.27

* * *

# assay_system: HDAC2 (Homo sapiens)
# test_description: IC50-shift experiments (varied preincubation time)
# Type: biochemical
# Parameters: purchased BPS Bioscience 50052
# condition_set: HDAC2 IC50, preincubation 5 min, preincubation time 5 min at 20°C; triplicates
Provide the reported IC50 of each item.
Please give a number only; it is taken to be in µM.

Consider the compound shown here: "CC(=O)Nc1ccc(C(=O)Nc2cc(-c3ccncc3)ccc2N)cc1" What is its recorded IC50?
0.0982

Can you handle "CN(C)c1ccc(C(=O)N(CC(=O)NC(C)(C)C)Cc2ccc(C(=O)Nc3cc(-c4ccncc4)ccc3N)cc2)cc1" next?
0.117

* * *

Provide the reported IC50 of each item.
# assay_system: HDAC2 (Homo sapiens, UniProt Q92769)
# test_description: In vitro HDAC inhibition preincubation assay (ZMAL substrate)
Please give a number only; it is taken to be in nM.

Consider the compound shown here: "CC(=O)Nc1ccc(C(=O)Nc2cc(-c3ccncc3)ccc2N)cc1" What is its recorded IC50?
77.2

Can you handle "CC(=O)Nc1ccc(C(=O)Nc2cc(-c3ccc(F)nc3)ccc2N)cc1" next?
118

Can you handle "CN(C)c1ccc(C(=O)N(CC(=O)NCc2ccccc2)Cc2ccc(C(=O)Nc3cc(-c4ccncc4)ccc3N)cc2)cc1" next?
100
